Tested on: Blumeria graminis f. sp. tritici
method-description: Test C: wheat powdery mildew, preventive spray on wheat seedlings
Type: in vivo
run-parameters: 50 ppm, rated after 8 days, 100 = 100% disease control, 0 = no control
Decide by Test C disease control rating (wheat powdery mildew): equal to or exceeding 90% means TRUE, less means FALSE.

Hi, just wondering whether COc1ccc(-c2c(C)nn(C)c2Nc2c(Cl)cc(C)cc2[N+](=O)[O-])c(Cl)c1 [Compound 66] shows Test C disease control rating (wheat powdery mildew) of 90% or higher.
TRUE

Hi, just wondering whether Cc1nn(C)c(Nc2c(F)cc(Cl)cc2[N+](=O)[O-])c1-c1ccc(C#N)cc1Cl [Compound 115] shows Test C disease control rating (wheat powdery mildew) of 90% or higher.
TRUE

Hi, just wondering whether COc1ccc(-c2c(C)nn(C)c2Nc2c(F)cc(Br)cc2[N+](=O)[O-])c(Cl)c1 [Compound 182] shows Test C disease control rating (wheat powdery mildew) of 90% or higher.
FALSE

Hi, just wondering whether Cc1nn(C)c(Nc2ccccc2[N+](=O)[O-])c1-c1c(F)cc(F)cc1Cl [Compound 148] shows Test C disease control rating (wheat powdery mildew) of 90% or higher.
TRUE

Hi, just wondering whether Cc1nn(C)c(Nc2c(F)cc(Cl)cc2[N+](=O)[O-])c1-c1ccc(Cl)cc1Cl [Compound 11] shows Test C disease control rating (wheat powdery mildew) of 90% or higher.
TRUE

Hi, just wondering whether Cc1nn(C)c(Nc2c(Cl)cc(Cl)cc2[N+](=O)[O-])c1-c1c(F)cccc1F [Compound 96] shows Test C disease control rating (wheat powdery mildew) of 90% or higher.
FALSE

Hi, just wondering whether Cc1nn(C)c(Nc2ccccc2[N+](=O)[O-])c1-c1ccc(C#N)cc1F [Compound 134] shows Test C disease control rating (wheat powdery mildew) of 90% or higher.
FALSE

Hi, just wondering whether Cc1nn(C)c(Nc2c(F)cccc2[N+](=O)[O-])c1-c1c(F)cc(Cl)cc1F [Compound 151] shows Test C disease control rating (wheat powdery mildew) of 90% or higher.
TRUE

Hi, just wondering whether Cc1ccc(Nc2c(-c3ccc(F)cc3Cl)c(C)nn2C)c([N+](=O)[O-])c1 [Compound 26] shows Test C disease control rating (wheat powdery mildew) of 90% or higher.
TRUE

Hi, just wondering whether Cc1nn(C)c(Nc2cccc(Cl)c2[N+](=O)[O-])c1-c1c(F)cccc1F [Compound 99] shows Test C disease control rating (wheat powdery mildew) of 90% or higher.
FALSE

Hi, just wondering whether Cc1nn(C)c(Nc2c(F)cc(F)cc2[N+](=O)[O-])c1-c1ccc(F)cc1F [Compound 58] shows Test C disease control rating (wheat powdery mildew) of 90% or higher.
TRUE

Hi, just wondering whether Cc1cc(Cl)c(Nc2c(-c3ccc(Cl)cc3Cl)c(C)nn2C)c([N+](=O)[O-])c1 [Compound 145] shows Test C disease control rating (wheat powdery mildew) of 90% or higher.
FALSE

Hi, just wondering whether CCc1nn(C)c(Nc2c(F)cc(F)cc2[N+](=O)[O-])c1-c1ccc(F)cc1Cl [Compound 95] shows Test C disease control rating (wheat powdery mildew) of 90% or higher.
TRUE

Hi, just wondering whether Cc1nn(C)c(Nc2c(Cl)cccc2[N+](=O)[O-])c1-c1c(F)cccc1Cl [Compound 38] shows Test C disease control rating (wheat powdery mildew) of 90% or higher.
TRUE

Hi, just wondering whether CCc1ccc(Nc2c(-c3ccc(F)cc3Cl)c(C)nn2C)c([N+](=O)[O-])c1 [Compound 6] shows Test C disease control rating (wheat powdery mildew) of 90% or higher.
FALSE

Hi, just wondering whether Cc1nn(C)c(Nc2c(Cl)cccc2[N+](=O)[O-])c1-c1ccc(F)cc1Br [Compound 41] shows Test C disease control rating (wheat powdery mildew) of 90% or higher.
TRUE

Hi, just wondering whether Cc1cccc([N+](=O)[O-])c1Nc1c(-c2c(F)cc(F)cc2Br)c(C)nn1C [Compound 169] shows Test C disease control rating (wheat powdery mildew) of 90% or higher.
TRUE

Hi, just wondering whether COc1cc(F)c(-c2c(C)nn(C)c2Nc2ccccc2[N+](=O)[O-])c(F)c1 [Compound 147] shows Test C disease control rating (wheat powdery mildew) of 90% or higher.
TRUE

Hi, just wondering whether COc1cc(F)c(Nc2c(-c3ccc(F)cc3Br)c(C)nn2C)c([N+](=O)[O-])c1 [Compound 165] shows Test C disease control rating (wheat powdery mildew) of 90% or higher.
TRUE

Hi, just wondering whether Cc1nn(C)c(Nc2c(Cl)cccc2[N+](=O)[O-])c1-c1c(F)cccc1F [Compound 77] shows Test C disease control rating (wheat powdery mildew) of 90% or higher.
TRUE

Hi, just wondering whether Cc1cc(Cl)c(Nc2c(-c3ccc(F)cc3F)c(C)nn2C)c([N+](=O)[O-])c1 [Compound 15] shows Test C disease control rating (wheat powdery mildew) of 90% or higher.
TRUE

Hi, just wondering whether Cc1nn(C)c(Nc2c(Cl)cccc2[N+](=O)[O-])c1-c1ccc(Cl)cc1Cl [Compound 133] shows Test C disease control rating (wheat powdery mildew) of 90% or higher.
FALSE

Hi, just wondering whether Cc1nn(C)c(Nc2c(Br)cccc2[N+](=O)[O-])c1-c1ccc(F)cc1Cl [Compound 110] shows Test C disease control rating (wheat powdery mildew) of 90% or higher.
FALSE

Hi, just wondering whether COc1ccc(Nc2c(-c3c(F)cc(F)cc3F)c(C)nn2C)c([N+](=O)[O-])c1 [Compound 159] shows Test C disease control rating (wheat powdery mildew) of 90% or higher.
TRUE

Hi, just wondering whether CCc1nn(C)c(Nc2c(F)cc(Br)cc2[N+](=O)[O-])c1-c1ccc(F)cc1F [Compound 171] shows Test C disease control rating (wheat powdery mildew) of 90% or higher.
TRUE

Hi, just wondering whether Cc1nn(C)c(Nc2c(F)cc(F)cc2[N+](=O)[O-])c1-c1ccc(Cl)cc1Cl [Compound 9] shows Test C disease control rating (wheat powdery mildew) of 90% or higher.
TRUE

Hi, just wondering whether COc1cc(F)c(-c2c(C)nn(C)c2Nc2ccc(OC)cc2[N+](=O)[O-])c(F)c1 [Compound 161] shows Test C disease control rating (wheat powdery mildew) of 90% or higher.
TRUE

Hi, just wondering whether Cc1nn(C)c(Nc2c(Cl)cc(F)cc2[N+](=O)[O-])c1-c1c(F)cccc1Cl [Compound 49] shows Test C disease control rating (wheat powdery mildew) of 90% or higher.
TRUE

Source of measurements: patent US12398107B2
